Source of measurements: patent US20260085114A1

Target: T1, human GPRC5B, on 293T cells (human, UniProt Q9NZH0 29-403)
T1 construct: whole, on cells; also called 293T-GPRC5B
T1 sequence (Q9NZH0 29-403): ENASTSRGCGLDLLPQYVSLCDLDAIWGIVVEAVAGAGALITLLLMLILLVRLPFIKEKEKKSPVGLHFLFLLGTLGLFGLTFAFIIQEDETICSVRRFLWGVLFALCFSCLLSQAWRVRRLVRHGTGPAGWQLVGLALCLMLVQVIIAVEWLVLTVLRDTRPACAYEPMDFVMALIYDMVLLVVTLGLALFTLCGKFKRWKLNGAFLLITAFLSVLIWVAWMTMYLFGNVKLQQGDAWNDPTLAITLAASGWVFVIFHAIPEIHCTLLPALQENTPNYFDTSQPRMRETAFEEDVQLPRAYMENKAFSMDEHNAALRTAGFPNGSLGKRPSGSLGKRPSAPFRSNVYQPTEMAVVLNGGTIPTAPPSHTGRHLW
Assay: FACS on 293T-GPRC5B cells, antibody at 2 µg/mL; control tubes 8.55 and 8.26

binder	FACS result
humanized antibody 26D1 (hz) (antibody, V domains shown) VH: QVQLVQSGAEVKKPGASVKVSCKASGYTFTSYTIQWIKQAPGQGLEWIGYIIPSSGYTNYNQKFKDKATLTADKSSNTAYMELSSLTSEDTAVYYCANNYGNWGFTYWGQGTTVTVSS VL: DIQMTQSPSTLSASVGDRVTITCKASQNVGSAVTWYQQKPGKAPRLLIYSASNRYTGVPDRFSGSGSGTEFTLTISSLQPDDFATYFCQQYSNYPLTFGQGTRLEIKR	8.59
humanized antibody 24F5 (hz) (antibody, V domains shown) VH: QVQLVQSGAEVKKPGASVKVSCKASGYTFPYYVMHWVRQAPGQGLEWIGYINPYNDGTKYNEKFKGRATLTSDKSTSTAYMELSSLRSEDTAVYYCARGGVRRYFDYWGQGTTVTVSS VL: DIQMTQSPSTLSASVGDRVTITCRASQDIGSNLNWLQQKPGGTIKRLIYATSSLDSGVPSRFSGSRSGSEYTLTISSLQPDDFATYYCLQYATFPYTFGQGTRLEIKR	8.58
humanized antibody 6E97 (hz) (antibody, V domains shown) VH: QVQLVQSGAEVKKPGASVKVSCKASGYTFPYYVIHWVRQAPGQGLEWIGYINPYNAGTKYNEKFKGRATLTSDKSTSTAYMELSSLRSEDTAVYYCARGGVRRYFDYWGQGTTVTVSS VL: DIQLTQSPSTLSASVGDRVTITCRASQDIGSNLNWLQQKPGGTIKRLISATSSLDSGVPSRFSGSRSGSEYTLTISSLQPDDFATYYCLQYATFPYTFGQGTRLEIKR	8.62
humanized antibody 9D7 (hz) (antibody, V domains shown) VH: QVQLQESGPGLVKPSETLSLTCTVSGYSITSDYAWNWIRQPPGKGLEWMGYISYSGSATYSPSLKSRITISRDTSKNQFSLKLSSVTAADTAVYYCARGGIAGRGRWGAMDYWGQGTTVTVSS VL: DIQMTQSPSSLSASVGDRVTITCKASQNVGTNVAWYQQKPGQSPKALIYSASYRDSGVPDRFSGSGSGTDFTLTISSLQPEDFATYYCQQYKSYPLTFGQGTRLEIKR	8.54
